Each entry below lists one item and its recorded z-score value.
ASSAY_OVERVIEW: basal 3T3-L1 adipocyte mitochondrial potential changes, profiling panel, cell-based, JC-1 fluorescence, 3T3-L1 adipocytes, 24 h, 100 nL compound (AID 1168); note: test concentration not given here
CONDITIONS: JC-1 mitochondrial fluorescence, higher = more signal, called active from +8 up or from −8 down
Active and inactive are the calls of the source.
QUANTITY_MEASURED: z-score

MOLECULE	QUANTITY_MEASURED	RESULT_VALUE
CC(C)C[C@@H]1NC(=O)[C@@H]2C[C@H](C(=O)NCCCCCC[N+](C)(C)C)[C@H](c3cccc(OCCO)c3)N2C1=O	z-score	0.229 (inactive)
COc1cc2c(cc1O)C(c1cccs1)N(Cc1sc3ccccc3c1Cl)CC2 (stereo not given)	z-score	-0.197 (inactive)
CCOC(=O)C=Cc1ccccc1O	z-score	-0.35 (inactive)
CC(C)C(=C=CC[C@@H](O)c1cccc(OCCO)c1)C[C@@H](O)c1ccccn1	z-score	-0.425 (inactive)
[N-]=[N+]=Nc1ccccc1[C@@H]1OC(c2ccc(OCCCO)cc2)=N[C@]1(Cc1ccccc1)C(=O)NCc1ccccc1	z-score	0.976 (inactive)
